Each record here notes measured IC50.
- assayed-system: Zcchc11 enzyme (Homo sapiens, UniProt Q5TAX3)
- Construct: made in house; host or cells: HEK293 cells (Zcchc11); E. coli Rosetta II (LIN28A)
- Sequence (Q5TAX3 212-1420): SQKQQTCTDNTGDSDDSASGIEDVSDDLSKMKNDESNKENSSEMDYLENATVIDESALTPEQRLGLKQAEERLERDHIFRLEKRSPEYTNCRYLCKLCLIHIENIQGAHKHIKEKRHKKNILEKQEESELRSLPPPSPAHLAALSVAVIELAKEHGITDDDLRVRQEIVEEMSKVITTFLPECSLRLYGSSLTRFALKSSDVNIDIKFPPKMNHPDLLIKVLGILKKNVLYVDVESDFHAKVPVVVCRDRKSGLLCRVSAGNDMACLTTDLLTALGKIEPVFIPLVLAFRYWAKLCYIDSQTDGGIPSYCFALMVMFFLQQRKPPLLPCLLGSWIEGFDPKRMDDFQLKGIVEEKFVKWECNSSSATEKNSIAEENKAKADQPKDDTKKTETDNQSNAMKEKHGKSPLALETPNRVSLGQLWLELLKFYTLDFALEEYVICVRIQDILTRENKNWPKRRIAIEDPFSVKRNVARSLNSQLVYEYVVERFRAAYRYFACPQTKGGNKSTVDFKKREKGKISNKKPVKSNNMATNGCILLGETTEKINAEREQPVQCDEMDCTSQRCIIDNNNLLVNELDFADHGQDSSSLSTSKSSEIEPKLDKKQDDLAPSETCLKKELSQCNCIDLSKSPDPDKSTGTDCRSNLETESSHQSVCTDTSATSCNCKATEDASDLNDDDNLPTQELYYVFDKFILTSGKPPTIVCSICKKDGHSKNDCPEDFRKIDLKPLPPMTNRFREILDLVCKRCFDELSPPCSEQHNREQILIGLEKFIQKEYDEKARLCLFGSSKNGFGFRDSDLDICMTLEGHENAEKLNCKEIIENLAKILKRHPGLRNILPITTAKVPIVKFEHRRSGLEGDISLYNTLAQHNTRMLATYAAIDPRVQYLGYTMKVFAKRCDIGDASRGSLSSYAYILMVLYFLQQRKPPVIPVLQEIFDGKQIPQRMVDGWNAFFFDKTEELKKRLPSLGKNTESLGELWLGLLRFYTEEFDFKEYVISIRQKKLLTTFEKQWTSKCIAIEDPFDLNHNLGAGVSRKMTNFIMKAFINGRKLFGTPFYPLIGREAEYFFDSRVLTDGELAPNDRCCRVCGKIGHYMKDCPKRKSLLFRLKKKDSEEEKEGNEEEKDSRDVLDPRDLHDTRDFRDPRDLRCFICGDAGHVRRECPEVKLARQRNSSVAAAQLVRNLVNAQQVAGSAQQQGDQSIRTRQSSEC
- measurement-description: TUTase assay (Zcchc11 assay, Lin28a-dependent polyuridylation of pre-let-7)
- Format: biochemical
- condition-set: Lin28a-dependent Zcchc11 (Z11) TUTase assay; read-out: Potency Lin28a-dep Z11 IC50

[
  {
    "compound": "Cc1cccnc1OC[C@H]1CCCN1c1cc2c(cc1F)c(=O)c(C(=O)O)cn2C1(C)CC1 [Example 356]",
    "IC50": "≤ 1 µM"
  },
  {
    "compound": "CN(C)C1CN(c2ccc(-n3cc(C(=O)O)c(=O)c4cc(Cl)c(N5CC6(CC6)C[C@@H]5COc5nc(OC6CC6)ccc5Cl)cc43)cn2)C1 [Example 675]",
    "IC50": "≤ 1 µM"
  },
  {
    "compound": "COc1ccc(Cl)c(OC[C@H]2CC3CC3N2c2cc3c(cc2Cl)c(=O)c(C(=O)O)cn3-c2ccc(N3CC(N(C)C)C3)nc2)n1 (stereo partly shown) [Example 654]",
    "IC50": "≤ 1 µM"
  },
  {
    "compound": "Cc1c(F)cccc1-n1cc(C(=O)O)c(=O)c2cc(F)c(N3CCC[C@@H]3COc3ccccn3)cc21 [Example 397]",
    "IC50": "1 to 10 µM"
  },
  {
    "compound": "O=C(O)c1cn(C2CCC2)c2cc(N3CCC[C@@H]3COc3ccccn3)c(F)cc2c1=O [Example 448]",
    "IC50": "1 to 10 µM"
  },
  {
    "compound": "O=C(O)c1cn(-c2ccc(N3CCCC3)nc2)c2cc(N3CCC[C@@H]3COc3ncccc3Cl)c(Cl)cc2c1=O [Example 432]",
    "IC50": "≤ 1 µM"
  },
  {
    "compound": "C#Cc1cc2c(=O)c(C(=O)O)cn(-c3ccc(N4CC(N(C)C)C4)nc3)c2cc1N1CCC[C@@H]1COc1ncccc1Cl [Example 592]",
    "IC50": "≤ 1 µM"
  }
]

---

- assayed-system: Zcchc11 enzyme (Homo sapiens, UniProt Q5TAX3)
- Construct: made in house; host or cells: HEK293 cells (Zcchc11); E. coli Rosetta II (LIN28A)
- measurement-description: TUTase assay (Zcchc11 assay, Lin28a-dependent polyuridylation of pre-let-7)
- Format: biochemical
- condition-set: Lin28a-dependent Zcchc11 (Z11) TUTase activity; read-out: Potency Lin28a-dep Z11 IC50
pIC50: −log10 of the molar value.
value-kind: pIC50

[
  {
    "compound": "CO/N=C1/CCN(c2cc3c(cc2Cl)c(=O)c(C(=O)O)cn3-c2ccc(N3CC(N(C)C)C3)nc2)C1COc1nc(OC)ccc1Cl (stereo not drawn)",
    "value-kind": "pIC50",
    "endpoint-value": "≥ 6.00"
  },
  {
    "compound": "CN(C)C1CN(c2ccc(-n3cc(C(=O)O)c(=O)c4cc(Cl)c(N5CC(c6ccccn6)C[C@@H]5COc5ncccc5Cl)cc43)cn2)C1 (mixture of isomers)",
    "value-kind": "pIC50",
    "endpoint-value": "≥ 6.00"
  },
  {
    "compound": "O=C(O)c1cn(-c2ccc(N3CCC3)nc2)c2cc(N3C(=O)CC[C@@H]3COc3ccccn3)c(Cl)cc2c1=O",
    "value-kind": "pIC50",
    "endpoint-value": "4.30 to 5.00"
  },
  {
    "compound": "CC1(n2cc(C(=O)O)c(=O)c3cc(Cl)c(N4CCC[C@@H]4CN4CCOCC4)cc32)CC1",
    "value-kind": "pIC50",
    "endpoint-value": "< 4.30"
  },
  {
    "compound": "Cc1cccnc1OC[C@H]1CCCN1c1cc2c(cc1C#N)c(=O)c(C(=O)O)cn2-c1cnn(C)c1",
    "value-kind": "pIC50",
    "endpoint-value": "≥ 6.00"
  },
  {
    "compound": "O=C(O)c1cn(-c2cnn(C3CN(CC(F)F)C3)c2)c2cc(N3CCC[C@@H]3COc3ncccc3Cl)c(Cl)cc2c1=O",
    "value-kind": "pIC50",
    "endpoint-value": "≥ 6.00"
  }
]
